Target: Aromatase (Homo sapiens, UniProt P11511)
Sequence (P11511 whole entry): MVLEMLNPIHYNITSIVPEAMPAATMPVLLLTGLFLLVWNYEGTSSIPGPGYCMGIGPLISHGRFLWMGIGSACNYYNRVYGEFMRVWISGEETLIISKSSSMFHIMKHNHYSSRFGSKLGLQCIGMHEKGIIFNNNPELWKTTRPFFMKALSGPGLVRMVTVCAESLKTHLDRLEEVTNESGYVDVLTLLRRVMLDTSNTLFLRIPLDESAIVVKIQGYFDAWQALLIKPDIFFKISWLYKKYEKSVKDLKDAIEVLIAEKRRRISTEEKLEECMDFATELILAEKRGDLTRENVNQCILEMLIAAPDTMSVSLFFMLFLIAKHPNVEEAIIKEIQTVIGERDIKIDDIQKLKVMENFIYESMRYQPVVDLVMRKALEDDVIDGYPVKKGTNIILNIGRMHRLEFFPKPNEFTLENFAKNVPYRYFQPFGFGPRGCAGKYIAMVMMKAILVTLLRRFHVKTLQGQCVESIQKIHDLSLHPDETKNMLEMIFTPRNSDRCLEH
Experiment: Maximum absorbance for formation of reversible-enzyme-ligand complexes with human placental aromatase (PL1)
VALUE KIND: Activity

I'm hoping you can list Activity for every compound here, please.
1. C[C@]12CCC3C(CCC4=CC(=O)CC[C@@]43S)C1CC[C@@H]2O (some centres undefined)
2. CC12CCC3C(CC=C4CC(=O)CCC43CO)C1CCC2=O (centres undefined)

Output line:
1: 0.167 Amax nM-1; 2: 0.125 Amax nM-1

I'm hoping you can list Activity for every compound here, please.
1. C[C@]12CCC(=O)C=C1CC[C@@H]1[C@@H]2CC[C@]2(C)C(=O)CC[C@@H]12 [ANDROSTENEDIONE]
2. C[C@]12C[C@@H](S)C(=O)C=C1CCC1C2CC[C@]2(C)C(=O)CCC12 (some centres undefined)

Output line:
1: 0.177 Amax nM-1; 2: 0.169 Amax nM-1

---

For each entry below, report its activity at 1 µM value.
Target: Aromatase (Homo sapiens)
Sequence (P11511 whole entry): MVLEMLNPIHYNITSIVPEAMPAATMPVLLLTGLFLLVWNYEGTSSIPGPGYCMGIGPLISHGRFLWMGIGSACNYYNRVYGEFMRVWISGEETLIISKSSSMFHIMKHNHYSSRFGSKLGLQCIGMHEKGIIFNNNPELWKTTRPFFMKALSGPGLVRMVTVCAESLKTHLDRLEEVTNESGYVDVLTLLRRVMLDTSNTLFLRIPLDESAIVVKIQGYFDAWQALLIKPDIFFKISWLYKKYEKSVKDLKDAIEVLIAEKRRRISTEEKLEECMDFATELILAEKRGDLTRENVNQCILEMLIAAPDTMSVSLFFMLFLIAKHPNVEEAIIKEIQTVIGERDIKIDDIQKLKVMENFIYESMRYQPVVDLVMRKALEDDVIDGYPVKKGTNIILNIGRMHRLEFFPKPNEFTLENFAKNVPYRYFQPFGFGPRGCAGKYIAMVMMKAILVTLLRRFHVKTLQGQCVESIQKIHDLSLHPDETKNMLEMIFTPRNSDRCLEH
Experiment: Dithiothreitol ([…]) reactivation of human placental aromatase following 1.0 uM inactivation for 10 minutes
Conditions: read-out: Activity remaning
Numbers only, in %.

Below: 4 compounds and their reported activity at 1 µM.
C#CC[C@]12CCC(=O)C=C1CCC1C2CC[C@]2(C)C(=O)CCC12.OC(CS)C(O)CS (stereo not given in full); 63
OC(CS)C(O)CS (stereo not drawn) [DL-DITHIOTHREITOL]; 84
C#CC[C@]12CCC(=O)C=C1CC[C@@H]1[C@@H]2CC[C@]2(C)C(=O)CC[C@@H]12 [PLOMESTANE]; 65
C[C@]12C[C@@H](S)C(=O)C=C1CCC1C2CC[C@]2(C)C(=O)CCC12 (stereo not given in full); 75

Next:
The reported value for C[C@]12C[C@@H](S)C(=O)C=C1CCC1C2CC[C@]2(C)C(=O)CCC12.OC(CS)C(O)CS (stereo not given in full) in terms of activity at 1 µM is 74
